# TARGET_DESC: T1, recombinant human ROR1-His (Sino Biological, 13968-H08H) (human, UniProt Q01973 30-406)
# T1 construct: extracellular domain; Bought protein; also called ROR1-HIS protein; not shown: His tag
# ASSAY_SUMMARY: BLI (Octet), ROR1-His on Anti-Penta-His or AR2G biosensor, IgG 30 to 0.021 nM, 1:1 fit
READOUT: kon

1. anti-ROR1 IgG antibody A2F3 (antibody, V domains shown, Full IgG form (human IgG1 constant region, lambda light chain), expressed in CHO-S cells) VH: EVQLLESGGGLVQPGGSLRLSCAASGFTFSSYDMSWVRQAPGKGLEWVSWISPGGGSKYYADSVKGRFTISRDNSKNTLYLQMNSLRAEDTAVYYCARVNGRFDYWGQGTLVTVSS VL: QSVLTQPPSASGTPGQRVTISCSGSSSNIGNNNVSWYQQLPGTAPKLLIYADSHRPSGVPDRFSGSKSGTSASLAISGLRSEDEADYYCATWDYSLSGYVFGGGTKLTVLG; 1.38e+06 M⁻¹ s⁻¹
2. anti-ROR1 IgG antibody CC9 (antibody, V domains shown, Full IgG form (human IgG1 constant region, lambda light chain), expressed in CHO-S cells) VH: EVQLLESGGGLVQPGGSLRLSCAASGFTFSSYDMSWVRQAPGKGLEWVSGISHGSGNKYYADSVKGRFTISRDNSKNTLYLQMNSLRAEDTAVYYCAKRLSLRRRPSYYSDNAMDVWGQGTLVTVSS VL: QSVLTQPPSASGTPGQRVTISCTGSSSNIGNNAVNWYQQLPGTAPKLLIYYDSNRPSGVPDRFSGSKSGTSASLAISGLRSEDEADYYCGAWDDSLSGYVFGGGTKLTVLG; 731000 M⁻¹ s⁻¹
